- System Tested: T1, human IL-36R on cells (human, UniProt Q9HB29 20-575)
- T1 sequence (looked up): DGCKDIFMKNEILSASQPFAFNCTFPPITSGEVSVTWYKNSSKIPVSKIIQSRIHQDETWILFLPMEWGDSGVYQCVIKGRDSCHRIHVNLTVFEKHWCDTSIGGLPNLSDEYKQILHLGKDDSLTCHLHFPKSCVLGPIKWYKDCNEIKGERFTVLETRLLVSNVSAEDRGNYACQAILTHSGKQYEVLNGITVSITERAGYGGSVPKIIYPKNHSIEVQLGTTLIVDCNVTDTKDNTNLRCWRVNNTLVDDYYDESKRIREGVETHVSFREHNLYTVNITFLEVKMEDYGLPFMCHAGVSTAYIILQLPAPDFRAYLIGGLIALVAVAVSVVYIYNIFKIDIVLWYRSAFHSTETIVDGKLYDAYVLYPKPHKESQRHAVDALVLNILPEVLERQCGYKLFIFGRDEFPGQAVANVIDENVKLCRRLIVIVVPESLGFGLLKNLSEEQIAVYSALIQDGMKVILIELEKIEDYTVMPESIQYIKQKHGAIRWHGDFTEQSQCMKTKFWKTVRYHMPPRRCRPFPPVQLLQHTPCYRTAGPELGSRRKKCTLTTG
- Protocol Notes: cell-based or functional assay
Below, each of the binders is paired with its reported IC90, GM-CSF release, NCI/ADR-RES cells, trun-IL-36b value.
# number only, unit nM dropped from output

Looking up antibody 81B4 (antibody, V domains shown, Mouse monoclonal from hybridoma; also called 81B4E11; Mouse 81B4) VH: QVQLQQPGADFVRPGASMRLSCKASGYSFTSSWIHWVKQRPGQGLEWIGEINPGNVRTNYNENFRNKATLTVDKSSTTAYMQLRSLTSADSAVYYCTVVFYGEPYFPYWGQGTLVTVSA VL: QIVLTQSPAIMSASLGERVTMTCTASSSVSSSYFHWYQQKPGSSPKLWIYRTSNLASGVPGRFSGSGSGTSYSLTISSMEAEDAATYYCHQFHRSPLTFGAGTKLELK , I see its IC90, GM-CSF release, NCI/ADR-RES cells, trun-IL-36b listed as 0.3

Looking up antibody 73C5 (antibody, V domains shown, Mouse monoclonal from hybridoma; also called 73C5C10; Mouse 73C5) VH: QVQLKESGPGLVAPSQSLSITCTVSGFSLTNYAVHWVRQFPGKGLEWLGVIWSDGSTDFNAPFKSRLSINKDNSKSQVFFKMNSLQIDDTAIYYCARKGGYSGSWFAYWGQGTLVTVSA VL: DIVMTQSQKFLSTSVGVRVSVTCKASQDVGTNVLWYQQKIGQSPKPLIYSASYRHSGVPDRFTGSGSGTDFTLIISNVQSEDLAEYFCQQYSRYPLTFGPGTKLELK , I see its IC90, GM-CSF release, NCI/ADR-RES cells, trun-IL-36b listed as 1.4

Next, consider the following binder.
Looking up antibody 78C8 (antibody, V domains shown, Mouse monoclonal from hybridoma; also called 78C8D1; Mouse 78C8) VH: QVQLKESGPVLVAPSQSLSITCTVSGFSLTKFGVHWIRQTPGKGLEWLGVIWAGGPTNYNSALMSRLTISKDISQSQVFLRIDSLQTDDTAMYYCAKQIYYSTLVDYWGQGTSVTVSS VL: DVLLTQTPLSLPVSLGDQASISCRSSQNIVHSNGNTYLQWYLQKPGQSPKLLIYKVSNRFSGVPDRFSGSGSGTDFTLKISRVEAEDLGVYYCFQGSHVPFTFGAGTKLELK , I see its IC90, GM-CSF release, NCI/ADR-RES cells, trun-IL-36b listed as 2
